Entries and their IC50 values follow.
target desc: m-calpain (Rattus norvegicus)
Construct: m-calpain was purified from rat brain; from tissue; host or cells: rat brain
Sequence (Q07009 20-700 limits assumed): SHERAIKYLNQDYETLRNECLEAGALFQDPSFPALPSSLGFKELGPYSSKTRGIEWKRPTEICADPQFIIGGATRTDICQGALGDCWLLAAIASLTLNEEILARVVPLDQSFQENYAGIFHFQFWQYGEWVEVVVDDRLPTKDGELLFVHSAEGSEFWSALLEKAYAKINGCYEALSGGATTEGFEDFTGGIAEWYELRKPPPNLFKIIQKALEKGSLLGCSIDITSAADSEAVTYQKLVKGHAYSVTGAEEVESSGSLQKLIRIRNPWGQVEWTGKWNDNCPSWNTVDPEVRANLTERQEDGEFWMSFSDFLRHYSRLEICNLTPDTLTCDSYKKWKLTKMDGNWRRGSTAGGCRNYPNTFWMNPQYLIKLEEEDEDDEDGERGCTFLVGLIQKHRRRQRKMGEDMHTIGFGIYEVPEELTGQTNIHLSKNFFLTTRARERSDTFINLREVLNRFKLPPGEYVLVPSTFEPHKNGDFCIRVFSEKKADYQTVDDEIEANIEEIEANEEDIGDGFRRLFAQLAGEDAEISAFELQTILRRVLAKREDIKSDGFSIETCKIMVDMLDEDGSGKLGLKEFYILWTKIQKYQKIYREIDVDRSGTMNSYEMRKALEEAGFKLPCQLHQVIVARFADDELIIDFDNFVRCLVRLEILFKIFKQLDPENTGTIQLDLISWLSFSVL
Sequence (Q64537 whole entry partner): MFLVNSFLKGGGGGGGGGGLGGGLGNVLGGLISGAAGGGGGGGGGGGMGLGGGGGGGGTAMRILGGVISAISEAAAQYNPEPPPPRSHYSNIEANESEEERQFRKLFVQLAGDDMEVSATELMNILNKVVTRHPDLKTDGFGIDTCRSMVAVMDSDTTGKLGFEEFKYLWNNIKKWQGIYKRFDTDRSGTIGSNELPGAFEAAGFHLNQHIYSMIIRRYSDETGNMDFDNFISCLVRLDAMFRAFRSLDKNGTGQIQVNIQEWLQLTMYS
test description: Thiol protease inhibitory activity, m-calpain purified from rat brain
Type: biochemical
measurement setup: Table 3

compound structure: CC(C)C[C@H](NC(=O)COc1ccccc1)C(=O)N[C@@H](CC1CCCCC1)C(=O)CSCc1ccco1
IC50 [µM]: 6
--
compound structure: CC(C)C[C@H](NC(=O)Cc1ccc2ccccc2c1)C(=O)N[C@@H](Cc1ccccc1)C(=O)CSCc1ccco1
IC50 [µM]: 28
--
compound structure: CCCC[C@H](NC(=O)[C@H](CC(C)C)NC(=O)COc1cccc(Cl)c1Cl)C(=O)CSCc1ccco1
IC50 [µM]: 14

Each recorded value in this set is attributed to patent US5639783A.
